Overview of reported pIC50 across a group of molecules:
tested on: TGF-beta-induced phosphorylation of Smad2 (Ser465/467) and Smad3 (Ser423/425) in Mv1-Lu cells; test: Inhibition of Smad2/3 phosphorylation in Mv1Lu cells (PathScan Phospho-Smad2 ELISA); assay type: cell-based, mink Mustela vison; conditions: Neogale vison, Mv1-Lu cells, TGF-beta 1 5 ng/ml, Phospho-Smad2/3 ELISA, read-out: TβR activity (Example 51)
pIC50: −log10 of the molar value.

Worked cases, pIC50 given:
{"columns": ["Mol", "pIC50"],
 "data": [
  ["Cn1cc(-c2cc(-c3cc(Cl)ccc3F)nc3ncccc23)c2ccncc2c1=O", "> 6.00"],
  ["Fc1ccc(Cl)cc1-c1cc(-c2ncnc3cnccc23)c2cccnc2n1", "5.00 to 6.00"]
]}

Sure, the documented pIC50 for Nc1nccc2c(-c3cc(-c4ccccc4)nc4ncccc34)nccc12 is > 6.00

Memo: COc1nnc(-c2cc(-c3ccccc3F)nc3ncccc23)c2ccncc12 , reported pIC50: < 5.00

Consider Fc1ccc(Cl)cc1-c1cc(-c2cnc(OCCN3CCOCC3)c3cnccc23)c2cccnc2n1 . Its measured pIC50 is > 6.00

# pIC50 of Nc1nccc2c(-c3cc(-c4ccccc4F)nc4ncccc34)cccc12 = > 6.00

Value of measured pIC50 for the entry Fc1ccccc1-c1cc(-c2ccc(OCCN3CCOCC3)c3cnccc23)c2cccnc2n1 : > 6.00

Looking up Fc1ccccc1-c1cc(-c2ccnc3cnccc23)c2cccnc2n1 , I found its pIC50 recorded as < 5.00

Summary for this molecule, COCC(=O)Nc1nccc2c(-c3cc(-c4ccccc4F)nc4ncccc34)nccc12 : pIC50 is 5.00 to 6.00

----------
Tested on: TGF-beta-induced phosphorylation of Smad2 (Ser465/467) and Smad3 (Ser423/425) in Mv1-Lu cells
Assay: Inhibition of Smad2/3 phosphorylation in Mv1Lu cells (PathScan Phospho-Smad2 ELISA)
Format: cell-based, mink Mustela vison
Conditions: Neogale vison, Mv1-Lu cells, TGF-beta 1 5 ng/ml, Phospho-Smad2/3 ELISA, read-out: TβR activity (Example 51)
Experimental: Inhibition of Smad2/3 Phosphorylation in Mv1 Lu Cells by TGF-Beta Receptor I Kinase Inhibitors This assay was used to determine the inhibitory potency of compounds on TGF-beta-induced phosphorylation of Smad2 (Ser465/467) and Smad3 (Ser423/425). […] After one hour of ligand stimulation, lysates were prepared and analyzed using an enzyme-linked immunosorbent assay kit (PathScan Phospho-Smad2 Kit, Cell Signaling Technologies). […]
Readout kind: IC50

Worked cases, answers included:
{"columns": ["Compound", "IC50"],
 "data": [
  ["Nc1nccc2c(-c3cc(-c4ccccc4F)nc4ncccc34)ccnc12 [Compound 113]", "< 1 µM"],
  ["Cn1cc(-c2ccc(-c3cc(-c4ccccc4F)nc4ncccc34)c3cnccc23)cn1 [Compound 64]", "< 1 µM"],
  ["Nc1nccc2c(-c3cc(-c4ccccc4Cl)nc4ncccc34)nccc12 [Compound 90]", "1 to 10 µM"],
  ["O=c1[nH]cc(-c2cc(-c3cc(F)ccc3F)nc3ncccc23)c2ccncc12 [Compound 107]", "< 1 µM"]
]}

The recorded IC50 for COc1cnc(-c2cc(-c3ccccc3F)nc3ncccc23)c2ccncc12 [Compound 115] is < 1 µM

IC50 recorded for this compound, Cn1cc(-c2cnc3nc(-c4ccccc4F)cc(-c4nccc5c(N)nccc45)c3c2)cn1 [Compound 116] , is > 10 µM

Given item Nc1nccc2c(-c3cc(-c4ccccc4F)nc4ncccc34)ccc(OCCO)c12 [Compound 79] , the value recorded as its IC50 is < 1 µM

IC50 measured on Fc1ccc(Cl)cc1-c1cc(-c2c[nH]c3cnccc23)c2cccnc2n1 [Compound 1] = < 1 µM

Entry under test: O=c1c2cnccc2c(-c2cc(-c3cc(Cl)ccc3F)nc3ncccc23)cn1CCN1CCCC1 [Compound 91] . Its IC50 was < 1 µM

The reported IC50 of the compound COCCn1cc(-c2cc(-c3cc(Cl)ccc3F)nc3ncccc23)c2ccncc21 [Compound 5] was < 1 µM
